Test system: K4 kissing-loop RNA reporter;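 further: bound reporter read as fluorescence of individual clusters on recovered sequencing chips by microscopy, with normalized cluster intensities fitted with a binding model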
Experiment: apparent KD of K4 kissing-loop reporter; higher = weaker reporter binding
Conditions: Eterna round: R107; input ligand: arginine 13.2 mM
Could you please report measured apparent KD of K4 kissing-loop reporter for the items listed next?
Answers are plain numbers, in µM.

Worked examples follow.
{"Residue string": "CCUUCUCAUUUCCGUUAUCAUUGCCUUAGGAAGGAUAUCAUUAUUUUGAGAAGGUCCGUGGUCUAUUUUCCGAGUGAUGUUUGGU [theeternabot_exclusion_KL_FMN_A_45]", "apparent KD of K4 kissing-loop reporter, µM": 0.226}
{"Residue string": "GUUACGCAUGGAAGGAGCGCGAAUUUAAUUAGUGAGUGAUGUUCACAUAAAAUGUAUAAUACGCAGGUAGGUCGCCAUGUGUAAC [whbob_Ex_Arginine_B_2th163]", "apparent KD of K4 kissing-loop reporter, µM": 0.084}
{"Residue string": "AAGUAGAUCAAGAUCUAGUAUCUAGAUCAACGAGGACCGGUACGGCCGCCACUCGAAUAAUAGAGUGAUGUUCUAAGAUCUACAA [AK1.4 SS Tryptophan A]", "apparent KD of K4 kissing-loop reporter, µM": 0.716}
{"Residue string": "GCGCGGCAGGCGGCCGCCACUCUGACGAGCCACAGUGAUGUUGUGGUCGGAGAAACGUCUUCAUAGAGGACCGGGUUUGUUGUUC [Same State Typtophan A GF 25]", "apparent KD of K4 kissing-loop reporter, µM": 0.186}

# input for lookup
Request: What does the record list as apparent KD of K4 kissing-loop reporter for AGACUAUCGUCAAAGACGGUAGUCAAAAGUGAGGAUAUAGUGAUGUUUAGAAGGCACUAAGACUGUAUCGAAUAGAUACGGUCAA [FmnA 1 #K4BetweenAptamer #OpenEnded] ?
Result: 1.32
